- MEASURED_ON: CDK4/cyclin D3 (Homo sapiens, UniProt P11802)
- Construct: purchased Carna Biosciences, Inc. QS S Assist CDK4/Cyclin D3_FP Kit
- Sequence (P11802 whole entry): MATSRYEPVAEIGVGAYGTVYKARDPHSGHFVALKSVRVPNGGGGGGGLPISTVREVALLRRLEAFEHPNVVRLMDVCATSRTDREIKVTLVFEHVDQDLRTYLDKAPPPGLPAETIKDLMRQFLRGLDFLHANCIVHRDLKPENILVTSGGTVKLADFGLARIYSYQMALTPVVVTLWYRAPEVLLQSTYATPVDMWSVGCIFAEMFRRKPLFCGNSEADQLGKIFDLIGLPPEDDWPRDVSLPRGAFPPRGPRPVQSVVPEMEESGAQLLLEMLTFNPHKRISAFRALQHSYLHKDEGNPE
- Sequence (P30281 whole entry partner): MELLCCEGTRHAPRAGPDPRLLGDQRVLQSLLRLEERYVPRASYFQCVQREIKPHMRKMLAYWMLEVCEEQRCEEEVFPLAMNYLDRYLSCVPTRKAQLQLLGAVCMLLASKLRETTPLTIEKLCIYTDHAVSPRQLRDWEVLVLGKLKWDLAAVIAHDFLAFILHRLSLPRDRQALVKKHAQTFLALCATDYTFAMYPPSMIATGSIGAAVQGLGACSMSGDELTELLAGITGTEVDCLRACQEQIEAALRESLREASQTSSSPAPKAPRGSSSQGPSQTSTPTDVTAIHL
- ASSAY_TEXT: Human CDK4/cyclin D3 inhibitory activity (QS S Assist CDK4/Cyclin D3_FP Kit, IMAP fluorescence polarization)
- Assay type: biochemical
- MEASUREMENT_CONTEXT: 50% inhibitory concentration against CDK4/cyclin D3, given as class symbol
MEASURE: IC50

COMPOUND | MEASURED_ON | VALUE
Cc1cc(Nc2ncc3cc([C@@H](C)O)nc(NC(C)C)c3n2)ncc1N1CCNCC1=O | CDK4/cyclin D3 (Homo sapiens, UniProt P11802) | 10 to 100 nM
CO[C@H](C)c1cc2cnc(Nc3ccc(OC4CCNCC4)cn3)nc2c(NCC2CCOCC2)n1 | CDK4/cyclin D3 (Homo sapiens, UniProt P11802) | < 10 nM
CC(C)Nc1nc([C@@H](C)O)cc2cnc(Nc3ccc(N4CCN=CC4=O)cn3)nc12 | CDK4/cyclin D3 (Homo sapiens, UniProt P11802) | < 10 nM
CC(C)Nc1nc(C(C)O)cc2cnc(Nc3ccc(OC4CCCC4N(C)C)cn3)nc12 (centres unmarked) | CDK4/cyclin D3 (Homo sapiens, UniProt P11802) | < 10 nM
CCNc1nc([C@@H](C)O)cc2cnc(Nc3ccc4c(n3)CCN(CCN(C)C)C4)nc12 | CDK4/cyclin D3 (Homo sapiens, UniProt P11802) | < 10 nM
CO[C@H](C)c1cc2cnc(Nc3ncc(N4CCNCC4=O)cc3F)nc2c(NC(C)C)n1 | CDK4/cyclin D3 (Homo sapiens, UniProt P11802) | 10 to 100 nM
CN[C@H]1CC[C@@H](Oc2ccc(Nc3ncc4cc([C@@H](C)O)nc(NC(C)C)c4n3)nc2)CC1 | CDK4/cyclin D3 (Homo sapiens, UniProt P11802) | < 10 nM
CCCCNc1nc([C@@H](C)O)cc2cnc(Nc3ccc(N4CCNCC4=O)cn3)nc12 | CDK4/cyclin D3 (Homo sapiens, UniProt P11802) | < 10 nM

###

In this section we review reported IC50 values for a set of compounds.
- MEASURED_ON: CDK4/cyclin D3 (Homo sapiens, UniProt P11802)
- Construct: purchased Carna Biosciences, Inc. QS S Assist CDK4/Cyclin D3_FP Kit
- ASSAY_TEXT: Human CDK4/cyclin D3 inhibitory activity (QS S Assist CDK4/Cyclin D3_FP Kit, IMAP fluorescence polarization)
- Format: biochemical
- MEASUREMENT_CONTEXT: Human CDK4/cyclin D3 inhibitory activity; read-out: CDK4 Activity symbol
- Experimental: Human CDK4/Cyclin D3 Inhibitory Activity Each compound was analyzed for CDK4/cyclin D3 inhibitory activity with an assay kit (QS S Assist CDK4/Cyclin D3_FP Kit, available from Carna Biosciences, Inc.). […] Specifically, the kinase activity is determined through quantification of a variation in fluorescent polarization caused by binding of a kinase-phosphorylated fluorescent substance to an IMAP-binding reagent. […]
MEASURE: IC50

COMPOUND | MEASURE | VALUE
CC(C)Nc1nc([C@@H](C)O)cc2cnc(Nc3ccc(N4CCN[C@@H](C)C4=O)cn3)nc12 | IC50 | < 10 nM
CO[C@H](C)c1cc2cnc(Nc3ccc(N4CCNCC4)nn3)nc2c(N[C@H]2CCCOC2)n1 | IC50 | < 10 nM
CO[C@H](C)c1cc2cnc(Nc3ccc(OC4CC5CCC(C4)N5)cn3)nc2c(NC(C)C)n1 (stereo partly shown) | IC50 | < 10 nM
COCC(C)(C)Nc1nc([C@@H](C)O)cc2cnc(Nc3ccc(OCCN(C)C)cn3)nc12 | IC50 | < 10 nM
CC(C)Nc1nc(C(F)F)cc2cnc(Nc3ccc(N4CCC(O)CC4)cn3)nc12 | IC50 | < 10 nM
CC(C)Nc1nc([C@@H](C)O)cc2cnc(Nc3ccc(N4CCN(CC(C)(C)O)CC4)nn3)nc12 | IC50 | < 10 nM
C[C@@H](O)c1cc2cnc(Nc3ccc(CN4CCNCC4)cn3)nc2c(NC2CCS(=O)(=O)CC2)n1 | IC50 | < 10 nM
